Below, each entry is listed alongside its reported Emax.
# experimental-system: soluble guanylate cyclase (sGC) (Homo sapiens (Human), UniProt Q02108+Q02153)
# Sequence (Q02153 whole entry): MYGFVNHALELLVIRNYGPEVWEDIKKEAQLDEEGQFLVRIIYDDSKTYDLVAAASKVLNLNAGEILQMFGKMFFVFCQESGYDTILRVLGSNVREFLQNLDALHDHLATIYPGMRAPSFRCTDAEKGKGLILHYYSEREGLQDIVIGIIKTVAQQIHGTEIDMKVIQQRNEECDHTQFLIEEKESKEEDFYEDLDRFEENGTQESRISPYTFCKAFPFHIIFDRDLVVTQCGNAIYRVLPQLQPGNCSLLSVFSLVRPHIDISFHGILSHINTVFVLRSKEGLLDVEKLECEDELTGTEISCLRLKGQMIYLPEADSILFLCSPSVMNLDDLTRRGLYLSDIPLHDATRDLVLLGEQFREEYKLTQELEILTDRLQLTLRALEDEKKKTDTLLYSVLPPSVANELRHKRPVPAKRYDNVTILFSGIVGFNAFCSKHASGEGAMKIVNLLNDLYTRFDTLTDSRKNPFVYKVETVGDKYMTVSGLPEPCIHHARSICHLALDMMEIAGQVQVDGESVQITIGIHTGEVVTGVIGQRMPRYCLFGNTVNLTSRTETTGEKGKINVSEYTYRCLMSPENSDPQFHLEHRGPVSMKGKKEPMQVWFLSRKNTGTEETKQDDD
# Sequence (Q02108 whole entry): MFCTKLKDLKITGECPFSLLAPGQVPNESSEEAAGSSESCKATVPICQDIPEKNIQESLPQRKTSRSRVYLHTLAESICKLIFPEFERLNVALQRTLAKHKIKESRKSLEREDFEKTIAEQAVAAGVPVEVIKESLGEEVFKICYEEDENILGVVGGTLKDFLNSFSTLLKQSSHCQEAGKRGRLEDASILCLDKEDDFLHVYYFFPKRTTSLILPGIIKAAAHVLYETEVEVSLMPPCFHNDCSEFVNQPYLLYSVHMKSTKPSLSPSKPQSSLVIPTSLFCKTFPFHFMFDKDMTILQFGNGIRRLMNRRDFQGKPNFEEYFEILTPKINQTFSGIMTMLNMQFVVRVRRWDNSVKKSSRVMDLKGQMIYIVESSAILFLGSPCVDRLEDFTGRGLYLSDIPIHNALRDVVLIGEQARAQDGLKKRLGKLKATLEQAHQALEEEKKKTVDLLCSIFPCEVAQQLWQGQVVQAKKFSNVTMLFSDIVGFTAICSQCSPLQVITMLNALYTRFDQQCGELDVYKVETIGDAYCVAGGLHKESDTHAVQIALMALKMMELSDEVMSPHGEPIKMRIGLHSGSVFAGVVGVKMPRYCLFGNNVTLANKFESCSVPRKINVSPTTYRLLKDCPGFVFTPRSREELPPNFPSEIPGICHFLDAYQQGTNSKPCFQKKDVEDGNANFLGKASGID
# procedure-text: sGC-HEK-cGMP assay run with SNP incubation (HEK WC assay)
# Assay type: cell-based
# condition-description: read-out: HEK WC Assay (% Emax at 10 μM with 10 uM SNP)

Consider the reported Emax for these compounds:
compound | result
Fc1ccccc1Cn1nc(-c2ncccn2)cc1-c1ncco1 | 20 to 40%
COCC(=O)Nc1cnc(-c2cc(-c3ccon3)n(Cc3ccccc3F)n2)nc1N | 80 to 100%
Oc1nc(-c2cc(-c3ncco3)n(Cc3ccccc3F)n2)ncc1F | 40 to 60%
CC(C)(C)[S+]([O-])Nc1cnc(-c2cc(-c3ccon3)n(Cc3ccccc3F)n2)nc1N[S+]([O-])C(C)(C)C (stereo not drawn) | 10 to 20%
Cc1cc(O)nc(-c2cc(-c3ccon3)n(Cc3ccccc3F)n2)n1 | 10 to 20%
CCOc1cnc(-c2cc(-c3ncccn3)nn2Cc2ccccc2F)o1 | 0 to 10%
Nc1cc(C(F)(F)F)nc(-c2cc(-c3ccon3)n(Cc3ccccc3F)n2)n1 | 10 to 20%
Fc1cccc(Cn2nc(-c3ncccn3)cc2-c2ccon2)c1F | 40 to 60%

Bench note, soluble guanylate cyclase (sGC) (Homo sapiens (Human), UniProt Q02108+Q02153): "Nc1nc(-c2cc(-c3ccon3)n(Cc3ccccc3F)n2)ncc1NC(=O)c1ccccc1F" , Emax reads 60 to 80%

---

Below, each entry is listed alongside its reported Emax.
# experimental-system: soluble guanylate cyclase (sGC) (Homo sapiens (Human), UniProt Q02108+Q02153)
# procedure-text: sGC-HEK-cGMP assay run with SNP incubation (HEK WC assay)
# Format: cell-based
# condition-description: read-out: HEK WC Assay (% Emax at 30 μM with 10 uM SNP)
# Experimental: Human embryonic kidney cells (HEK293), endogenously expressing soluble guanylate cyclase (sGC), were used to evaluate the activity of test compounds. Compounds stimulating the sGC receptor should cause an increase in the intracellular concentration of cGMP. […] EC50 values were calculated from concentration-response curves generated with GraphPad Prism Software.

Consider the reported Emax for these molecules:
chem-smiles | experimental-endpoint | result
Cc1cc(Cl)nc(-c2cc(-c3ccon3)n(Cc3ccccc3F)n2)n1 | Emax | 60 to 80%
Nc1nc(-c2cc(-c3ccon3)n(Cc3ccccc3F)n2)ncc1NC(=O)c1ccccc1F | Emax | 80 to 100%
Nc1nc(-c2cc(-c3ccon3)n(Cc3ccccc3F)n2)ncc1Nc1nccs1 | Emax | 60 to 80%
Nc1nc(-c2cc(-c3ccon3)n(Cc3ccccc3F)n2)ncc1NC(=O)c1cccc(Cl)c1 | Emax | 60 to 80%

// Emax value for "Nc1nc(-c2cc(-c3ccon3)n(Cc3ccccc3F)n2)ncc1N1CCOC1=O" : 60 to 80%

// Emax value for "CC1(C(=O)Nc2cnc(-c3cc(-c4ccon4)n(Cc4ccccc4F)n3)nc2N)CC1" : 100 to 120%

// Emax value for "Nc1nc(-c2cc(-c3ccon3)n(Cc3ccccc3F)n2)ncc1NC(=O)c1cnco1" : 60 to 80%

// Emax value for "Cc1cnc(-c2cc(-c3ccon3)n(Cc3ccccc3F)n2)nc1N" : 80 to 100%

// Emax value for "FC(F)(F)c1ccccc1Cn1nc(-c2ncccn2)cc1-c1ccon1" : 0 to 10%

This collection of values is drawn from patent US10189809B2.
